experiment: protein stability index of a GFP-peptide fusion (yeast GPS) (PSI 1-4); higher = more stable; sorted into four equal gates, so the index is relative within each strain; conditions: san1∆
Kindly supply the reported protein stability index values for the records listed here.

query: Respond only with protein stability index recorded for VARIYASFNDTFVHVTD [RPS14A]
result: 2.12

query: Consider the sequence GKGIKLSIAEERDRRRA [RPS4A] and give its recorded protein stability index.
result: 3.35

query: Give reported protein stability index value for DLSVTPQKSSSKGFVFN [YAR002W/NUP60]
result: 2.88

query: Respond only with protein stability index recorded for NLEKNYLAKLSKQLSLE [IRR1]
result: 2.55

query: Give reported protein stability index value for SRPASYGYFSVGKRVPI [SIR4]
result: 2.15

query: Item KTESQDVETRVQNLEQT [DPB4] : provide protein stability index
result: 3.2

query: Supply measured protein stability index of NDFFPGEVVYLRKQKDS [ITC1] in your reply.
result: 1.35
